assay: Cmax in BALB/c mouse at 50 mg/kg, po measured at 15 to 1440 mins by LC-MS/MS analysis; type: ADME, organism-based; parameters: time lower 15 min, dose 50 mg/kg, time upper 1440 min, route po; conditions: in vivo
propertyName: Cmax

| smilesInput | experimentalValue |
| --- | --- |
| O=C1CCCN1c1ccc(S(=O)(=O)c2ccccc2CO)c(C(F)(F)F)c1 | 175 ng/mL |
| O=C1CCCN1c1ccc(Sc2ccccc2CO)c(C(F)(F)F)c1 | 301 ng/mL |

* * *

assay: Microsomal stability in CD-1 mouse liver microsome measured assessed as half life upto 30 mins by HPLC-MS/MS analysis; type: ADME; conditions: liver microsomes

| smilesInput | half-life |
| --- | --- |
| O=C1CCCN1c1ccc(S(=O)(=O)c2ccccc2CO)c(C(F)(F)F)c1 | 4.39 min |
| N#Cc1cc(N2CCCC2=O)ccc1Sc1ccccc1CO | 54 min |
| O=C1CCCN1c1ccc(Sc2ccccc2CO)c(C(F)(F)F)c1 | 4.78 min |

* * *

assay: Cytotoxicity against monkey LLC-MK2 cells assessed as reduction in cell viability; format: toxicity, cell-based; conditions: rhesus monkey (Macaca mulatta)
propertyName: IC50 (µM)

| smilesInput | unitName | experimentalValue |
| --- | --- | --- |
| N#Cc1cc(N2CCCC2=O)ccc1Sc1ccccc1CO | µM | 0.447 |

* * *

assay: Cytotoxicity against rat H9c2 cells assessed as reduction in cell viability measured for 72 hrs; type: toxicity, cell-based
Some compounds, each annotated with its measured IC50 at 72 h.

| smilesInput | IC50 at 72 h |
| --- | --- |
| O=C1CCCN1c1ccc(Sc2cccc(F)c2CO)c(C(F)(F)F)c1 | > 50.1 µM |
| Cc1cccc(Sc2ccc(N3CCCC3=O)cc2C(F)(F)F)c1CO | > 50.1 µM |
| Cc1cc(N2CCCC2=O)ccc1Sc1ccccc1CO | > 50.1 µM |
| N#Cc1cc(N2CCCC2=O)ccc1Oc1ccccc1CO | > 50.1 µM |
| O=C1CCCN1c1ccc(S(=O)(=O)c2ccccc2CO)c(C(F)(F)F)c1 | > 50.1 µM |
| O=C1CCCN1c1ccc(Sc2ccccc2O)c(C(F)(F)F)c1 | 15.8 µM |
| CCc1ccccc1Sc1ccc(N2CCCC2=O)cc1C(F)(F)F | 15.8 µM |
| N#Cc1cc(N2CCCC2=O)ccc1Sc1ccccc1C(=O)O | > 50.1 µM |
| O=C1CCCN1c1ccc(Sc2ccccc2CO)cc1 | > 50.1 µM |
| O=C(O)c1cc(N2CCCC2=O)ccc1Sc1ccccc1CO | > 50.1 µM |
| N#Cc1cc(N2CCCC2=O)ccc1Sc1cccc(CO)c1 | > 50.1 µM |
| O=C1CCCN1c1ccc(Sc2c(Cl)cccc2CO)c(C(F)(F)F)c1 | > 50.1 µM |
| Cc1cccc(CO)c1Sc1ccc(N2CCCC2=O)cc1C(F)(F)F | > 50.1 µM |
| O=C1CCCN1c1ccc(Sc2ncccc2CO)c(C(F)(F)F)c1 | > 50.1 µM |
| O=C(Cn1ccnc1[N+](=O)[O-])NCc1ccccc1 | 31.6 µM |
| O=C1CCCN1c1ccc(Sc2cc(Cl)ccc2CO)c(C(F)(F)F)c1 | 39.8 µM |
| CN(C)C(=O)c1cc(N2CCCC2=O)ccc1Sc1ccccc1CO | > 50.1 µM |
| O=C1CCCN1c1ccc(Sc2ccc(Cl)cc2CO)c(C(F)(F)F)c1 | 31.6 µM |
| O=C1CCCN1c1ccc(Sc2cccc(Cl)c2CO)c(C(F)(F)F)c1 | > 50.1 µM |
| COC(=O)c1cc(N2CCCC2=O)ccc1Sc1ccccc1CO | > 50.1 µM |
| O=C1CCCN1c1ccc(Sc2cc(F)ccc2CO)c(C(F)(F)F)c1 | > 50.1 µM |
| COc1ccc(CO)c(Sc2ccc(N3CCCC3=O)cc2C(F)(F)F)c1 | > 50.1 µM |
| COc1cccc(Sc2ccc(N3CCCC3=O)cc2C(F)(F)F)c1CO | > 50.1 µM |
| O=C1CCCN1c1ccc(Sc2ccccc2CO)c(C(F)(F)F)c1 | > 50.1 µM |
